species on record: Homo sapiens; test: Selectivity index, ratio of IC50 for recombinant human MAO-A to IC50 for recombinant human MAO-B
RESULT_TYPE: Selectivity Index

Recorded results for 4 compounds are shown here.
[
  {
    "SAMPLE_SMILES": "COc1ccc2c(=O)c(/C=C/c3ccc(N(C)C)cc3)coc2c1",
    "Selectivity Index": 80
  },
  {
    "SAMPLE_SMILES": "COc1ccc2c(=O)c(/C=C/c3ccccc3)coc2c1",
    "Selectivity Index": 8
  },
  {
    "SAMPLE_SMILES": "COc1ccc2occ(/C=C/c3ccc(Cl)cc3)c(=O)c2c1",
    "Selectivity Index": 146
  },
  {
    "SAMPLE_SMILES": "COc1ccc2c(=O)c(/C=C/c3ccc(OC)c(OC)c3)coc2c1",
    "Selectivity Index": 576
  }
]

I. COc1ccc2occ(/C=C/c3ccc(OC)c(OC)c3)c(=O)c2c1
II. COc1cc(/C=C/c2coc3ccccc3c2=O)cc(OC)c1OC
III. CN(C)c1ccc(/C=C/c2coc3ccccc3c2=O)cc1
# rank by Selectivity Index, ascending (min first) Please respond by ranking the labels in the order requested.
I, II, III
